This collection of values is drawn from PubChem BioAssay AID1794806.

Tested on: HeLa proliferation, XTT absorbance
Experiment: antiproliferative effect on HeLa control cancer cells – cell-based, XTT absorbance, selectivity assay for AHD inhibitor project, dose response (AID 1794806)
The source made the active and inactive calls.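 The calls were made as follows: active = EC50 under 50 µM in a live-cell viability test; inactive = the rest.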
# Lookup of reported EC50 keyed by entry

### Prompt Recorded EC50 of NC(=O)c1ccc(-c2ccc3cc(C(=O)NCC4CCNCC4)sc3c2)cc1 , please.
### Response > 51 µM (inactive)

### Prompt Recorded EC50 of O=C(NCC1CCNCC1)c1c[nH]c2cc(-c3ccc(N4CCCC4)cc3)ccc12 , please.
### Response > 51 µM (inactive)

### Prompt Recorded EC50 of O=C(NCC1CCNCC1)c1c[nH]c2cc(-c3ccc(N4CCCCC4)cc3)ccc12 , please.
### Response > 51 µM (inactive)

### Prompt Recorded EC50 of O=C(NCC1CCNCC1)c1cc2cc(-c3ccc(N4CCCCC4)cc3)ccc2[nH]1 , please.
### Response > 51 µM (inactive)

### Prompt Recorded EC50 of O=C(NCC1CCNCC1)c1cc2ccc(-c3ccc(N4CCCCC4)cc3)cc2s1 , please.
### Response 50 µM

### Prompt Recorded EC50 of NCc1ccc(-c2ccc3cc(C(=O)NCC4CCNCC4)oc3c2)cc1 , please.
### Response > 51 µM (inactive)

### Prompt Recorded EC50 of O=C(NCC1CCNCC1)c1cc2ccc(-c3ccc(N4CCCC4)cc3)cc2s1 , please.
### Response 50 µM
